# System: IGROV-1
# PROTOCOL SUMMARY: NCI tumour cell line growth inhibition, 48 h
Activity calls are given as the source filed them. Rule as the data show it: active = GI50 up to about 1.1 µM and inactive = higher.
The compounds listed here are annotated with their GI50.

Worked examples, 5 compounds total:
• CN(C)CCc1c2c(nc3ccccc13)C(=O)c1cccnc1C2=O = 0.542 µM (active)
• CCCCCCc1cc2cc(C(=O)Nc3ccccc3)c(=N)oc2cc1O = 2.92 µM (inactive)
• CSc1nc2ccccc2c(=O)n1/N=C1\C(=O)N(CN2CCCCC2)c2ccc(Cl)cc21 = 13.5 µM (inactive)
• C=CCOc1ccc(C2(O)c3ccccc3C3=NCCCN32)cc1 (stereo not given) = 28.6 µM (inactive)
• COC1=C2C[C@](OC)(C#CC=CC#CC2O)CC1(C)C (stereo not given in full) = 18.2 µM (inactive)

Fill in: GI50 of COC1(O)c2cccc(Cl)c2C(=O)N1C1(C(N)=O)CCCCC1 (stereo not given) is ___ > 100 µM (inactive)

Next entry: COc1ccc(/C=C2\CN(C)C/C(=C\c3ccc(OC)c(OC)c3OC)C2=O)c(OC)c1OC 0.311 µM (active)

Next entry: Cc1nc(Nc2ccccc2)sc1C(=O)CC(=O)C(=O)Nc1c(C(C)C)cccc1C(C)C > 100 µM (inactive)

Next entry: CSc1nc(Nc2cccc(C(F)(F)F)c2)c2c(N)nn(C)c2n1 > 100 µM (inactive)

Next entry: O=C(Nc1nccs1)c1c(O)nc2sccn2c1=O > 10 µM (inactive)

###

# System: SK-MEL-5
# PROTOCOL SUMMARY: NCI tumour cell line growth inhibition, 48 h
Activity calls are given as the source filed them. Cut-off read from the data, not from the text of the source: active = GI50 up to about 1.1 µM and inactive = higher.
MEASURED PROPERTY: GI50

Worked examples, 3 compounds total:
* COc1ccccc1CC1(O)OC(=O)c2ccccc21 (stereo not drawn) | > 100 µM (inactive)
* O=[N+]([O-])c1ccc(-c2nc3ccccc3o2)cc1 | > 100 µM (inactive)
* CC1=C(/C(C)=N/NC(=O)c2ccccc2O)C(C)C(/C(C)=N/NC(=O)c2ccccc2O)=C(C)N1 | 19.8 µM (inactive)

Fill in: GI50 of Cc1cc(N(CCC#N)CCC#N)ccc1/C=C1N=C(/C=C\c2ccccc2)N(c2ccc(Cl)cc2)C\1=O is ___ 0.43 µM (active)

Next entry: Nc1ccc2nc(-c3ccccn3)c(-c3ccccn3)nc2c1 > 100 µM (inactive)

Next entry: C[C@]12CC[C@H]3[C@@H](CC=C4C[C@@H](N5CCCC5)CC[C@@]43C)[C@@H]1C/C(=C\c1ccc([N+](=O)[O-])cc1)[C@@H]2O 15 µM (inactive)

Next entry: OC1c2ccccc2CCC1C(O)(C(F)(F)F)C(F)(F)F (stereo not drawn) > 100 µM (inactive)

Next entry: CC(=O)OCC1OC(n2c(=O)n(-c3ccccc3)c(=O)c3ccccc32)C(OC(C)=O)C(OC(C)=O)C1OC(C)=O (stereo not drawn) > 100 µM (inactive)

Next entry: NC1=NN(c2ccccc2)C(=O)C1C(=O)C(=O)Nc1cccc(C(F)(F)F)c1 (stereo not drawn) > 100 µM (inactive)

###

# Test system: RXF 393
# PROTOCOL SUMMARY: NCI tumour cell line growth inhibition, 48 h
Activity calls are given as the source filed them. Cut-off read from the data, not from the text of the source: active = GI50 up to about 1.1 µM and inactive = higher.
MEASURED PROPERTY: GI50

* CC(NNC(=O)c1ccncc1)c1cccc(C(F)(F)F)c1 (stereo not drawn) | > 100 µM (inactive)

Fill in: GI50 of Nc1cccc2cc(S(=O)(=O)Nc3ccc(C(=O)O)cc3)ccc12 is ___ > 100 µM (inactive)

Next entry: COc1ccc(/C=N/NS(=O)(=O)c2ccc(/C=C3\NC(=O)NC3=O)cc2)cc1 > 100 µM (inactive)

###

The compounds listed here are annotated with their GI50.
# Tested on: PC-3
# PROTOCOL SUMMARY: NCI tumour cell line growth inhibition, 48 h
Activity calls are given as the source filed them. Cut-off read from the data, not from the text of the source: active = GI50 up to about 1.1 µM and inactive = higher.

Worked examples, 4 compounds total:
- C[C@@H]1C(=O)O[C@@H]2C[C@@]1(C)[C@@H]1C(=O)C3(O)OC14C2(C)OC(=O)[C@@]4(O)CCC1C3C(O)C=C2CC=CC(=O)[C@@]21C (stereo not given in full): 36 µM (inactive)
- Cc1c(C#N)c2ccccc2c2nc3ccccc3n12: > 100 µM (inactive)
- Cc1nc2sc(C(=O)c3ccc(Cl)cc3)c(N)c2c(-c2ccccc2Cl)c1C(=O)Nc1ccccc1: 19 µM (inactive)
- COCCCN1C(=O)C2c3[nH]c4ccccc4c3C3CCC(C(C)(C)C)CC3C2C1=O (stereo not given): 19.1 µM (inactive)

Next, consider the following compound.
Fill in: GI50 of O=c1[nH]c2ccc(CC(=S)N3CCOCC3)cc2o1 is ___ > 100 µM (inactive)

###

# System: SW-620
# PROTOCOL SUMMARY: NCI tumour cell line growth inhibition, 48 h
The source made the active and inactive calls. Rule as the data show it: active = GI50 up to about 1.1 µM and inactive = higher.
Your response should consist of one outcome taken from active, inactive

- C=C(C)[C@H]1C2=CC(C)=C(O2)[C@@H](O[C@@H]2c3oc(cc3C)[C@H](C(=C)C)[C@H]3C=C(CC[C@H]2C(=C)C)C(=O)O3)[C@H](C(=C)C)CCC2=C[C@H]1OC2=O: inactive
- CCc1ccc2nc(-c3ccc(O)cc3)sc2c1: inactive
- C/C(=C\COP(=O)(O)OP(=O)(O)O)CCCOCc1ccccc1: inactive
- C1CSCCSCCCS[C@@H]2CCCCC2SC1 (some centres undefined): inactive

Assay outcome for CCOC(=O)CC[C@H](N)C(=O)N[C@@H](Cc1ccc(N(CCCl)CCCl)cc1)C(=O)OCC : what was it? active

Next entry: O=[N+]([O-])CC(SCc1ccccc1)c1ccc2c(c1)OCO2 (centres undefined) inactive

###

# Test system: UACC-257
# PROTOCOL SUMMARY: NCI tumour cell line growth inhibition, 48 h
Activity calls are given as the source filed them. Rule as the data show it: active = GI50 up to about 1.1 µM and inactive = higher.
Your response should consist of one outcome taken from active, inactive

Answered examples (4):
* O=S1(=O)c2ccccc2NC(c2ccc3ccccc3c2)CC1c1ccccc1F (stereo unspecified) | inactive
* Cc1ccc(-c2n[nH]c(=O)n2N)cc1 | inactive
* O=C(CP(=O)(O)O)c1cccs1 | inactive
* O=C(O)/C(O)=C1/C=C(c2ccccc2)c2ccccc21 | inactive

Assay outcome for COc1ccc(/C=C2\CN(C)C/C(=C\c3ccc(OC)c(OC)c3OC)C2=O)c(OC)c1OC : what was it? active

Next entry: CC1=C(C(=O)N(C)c2ccc(Cl)c(C(=O)OC(C)C)c2)SCCO1 inactive

###

# System: HOP-62
# PROTOCOL SUMMARY: NCI tumour cell line growth inhibition, 48 h
The source made the active and inactive calls. Rule as the data show it: active = GI50 up to about 1.1 µM and inactive = higher.
Your response should consist of one outcome taken from 1.0 (active), 0.0 (inactive)

Answered examples (5):
• COc1ccc(C(=O)/C=C/c2ccc(OCCSCCCCCCCCCCSCCOc3ccc(/C=C/C(=O)c4ccc(OC)cc4)cc3)cc2)cc1 = 0.0
• O=C1CC(=O)NC(NN2C(=O)/C(=C/c3ccc(Cl)c(Cl)c3)N=C2c2ccccc2)=N1 = 0.0
• CCOC1C(Br)Cn2c(=O)c3cc4ccccc4cc3c(=O)n2C1C (configuration not stated) = 0.0
• O=C(O)c1cc(-c2ccncc2)nc2ccccc12 = 0.0
• NC(Cc1ccccc1)C(=O)OCN1C(=O)C2C3C=CC(C2C1=O)C1C2C(=O)N(COC(=O)C(N)Cc4ccccc4)C(=O)C2C31 (configuration not stated) = 0.0

Assay outcome for O=c1c2ccccc2nc2n1C(c1ccc([N+](=O)[O-])cc1)C2(c1ccccc1)c1ccccc1 (configuration not stated) : what was it? 0.0

Next entry: COc1cc(CNC2c3cc4c(cc3C(c3cc(OC)c(OC)c(OC)c3)[C@H]3C(=O)OCC23)OCO4)cc(OC)c1OC (some centres not stated) 1.0

Next entry: Cc1cc2c(cc1Cl)SSc1cc(Cl)c(C)cc1S(=O)(=O)Nc1nc(N)nn1C(O)n1nc(N)nc1NS2(=O)=O 0.0

Next entry: C=CCCCCNC(=O)C[C@@H]1C2=C(CC[C@H]1O[Si](C)(C)C(C)(C)C)N1C(=O)CCC/C=C\C1C2 (some centres not stated) 0.0

Next entry: COC(O)C(=O)c1c2c(cc3c1CC1(Cc4cc5c(cc4C1)CCC5)C3)CCC2 (configuration not stated) 0.0

Next entry: COc1ccccc1C1c2cc3c(cc2OC(O)(CO)C1C(=O)O)OCO3.COc1ccccc1C1c2cc3c(cc2OC2(O)COC(=O)C12)OCO3 (configuration not stated) 0.0

Next entry: COC(=O)c1c2c(c(-c3ccccc3)c3c1-c1nc(Cl)ccc1CC3)CCc1ccc(Cl)nc1-2 0.0

###

# Test system: COLO 205
# PROTOCOL SUMMARY: NCI tumour cell line growth inhibition, 48 h
Calls of active or inactive are those of the source. Rule as the data show it: active = GI50 up to about 1.1 µM and inactive = higher.
MEASURED PROPERTY: GI50

Worked examples, 3 compounds total:
- COc1ccc(C(=O)/C=C/c2ccc(OCCSCCCCCCCCCCSCCOc3ccc(/C=C/C(=O)c4ccc(OC)cc4)cc3)cc2)cc1: > 100 µM (inactive)
- CCCCCCc1cc2cc(-c3cn4c(n3)sc3ccccc34)c(=O)oc2cc1O: > 100 µM (inactive)
- COC1(O)c2cccc(Cl)c2C(=O)N1C1(C(N)=O)CCCCC1 (centres undefined): > 100 µM (inactive)

Fill in: GI50 of CC(=O)OCC1OC(N2C(S)=C(C#N)C(c3ccco3)C(C(C)=O)=C2c2ccccc2)C(OC(C)=O)C(OC(C)=O)C1OC(C)=O (centres undefined) is ___ 64.9 µM (inactive)

These data points were gathered from ChEMBL document CHEMBL1201862.
